target: DtabPBP1 (Dendrolimus tabulaeformis, UniProt A0A059PCM8); experiment: Competitive fluorescence binding assay (displacement of 1-NPN), DtabPBP1; conditions: DtabPBP1; 1-NPN fluorescence at ligand max conc 16; protein and 1-NPN at 2 μM, pH 7.4
Sequence (A0A059PCM8 entry or part of it): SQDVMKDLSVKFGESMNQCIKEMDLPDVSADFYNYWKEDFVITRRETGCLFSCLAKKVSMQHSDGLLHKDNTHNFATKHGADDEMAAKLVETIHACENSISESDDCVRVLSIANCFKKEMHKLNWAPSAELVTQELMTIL
ASSAY ENDPOINT: %of max±SE (%)
Answer with a number only, understood to be in %.

Would you mind telling me what %of max±SE value was observed for CC1=CCC2C(C1)C2(C)C (single isomer, unassigned; (+)) [(+)-3-Carene, (+)-3-carene] ?
85.3

Returns the measured %of max±SE for the input compound. Input: CC1=CCC2CC1C2(C)C (stereo not drawn) [(-)-α-Pinene, (−)-α-pinene]
85.4

Recorded %of max±SE of C=C1CCC2CC1C2(C)C (stereo not drawn) [(-)-β-Pinene, (−)-β-pinene] , please.
80.7
